Source listed as PubChem BioAssay AID1259407.

Tested on: CCRIS mutagenicity, Ames/micronucleus/aberration tests
Test: CCRIS mutagenicity studies
Conditions: Test System: AMES SALMONELLA TYPHIMURIUM; Strain/Indicator: TA98; Metabolic Activation: NONE; Method: PREINCUBATION
Active and inactive are the calls of the source. The rule behind the calls is not given here.
Write down the outcome that applies. Available outcomes: active, inactive

Hi team, can someone confirm the assay call for `N#Cc1ccccc1C#N` ? inactive

Hi team, can someone confirm the assay call for `[CH3][Hg][Cl]` ? inactive

Hi team, can someone confirm the assay call for `Nc1cc(Cl)ccc1Cl` ? inactive

Hi team, can someone confirm the assay call for `Cc1cccc(C)c1N` ? inactive

Hi team, can someone confirm the assay call for `ONc1ccc(-c2ccccc2)cc1` ? active

Hi team, can someone confirm the assay call for `CC(C)N` ? inactive

Hi team, can someone confirm the assay call for NC1CCC(CC2CCC(N)CC2)CC1 (stereo not given) ? inactive

Hi team, can someone confirm the assay call for CC1CCC(C(C)CS)CC1S (stereo not given) ? inactive

Hi team, can someone confirm the assay call for `CCOC(/C=C(\C)CCC=C(C)C)OCC` ? inactive

Hi team, can someone confirm the assay call for `O=C(CBr)c1ccc(-c2ccccc2)cc1` ? inactive

Hi team, can someone confirm the assay call for `O=[N+]([O-])c1ccc2c(ccc3ccccc32)c1` ? active

Hi team, can someone confirm the assay call for `Clc1c(Cl)c(Cl)c2ccccc2c1Cl` ? inactive

Hi team, can someone confirm the assay call for Clc1ccc(COC(Cn2ccnc2)c2ccc(Cl)cc2Cl)cc1 (stereo not given) ? inactive

Hi team, can someone confirm the assay call for `Cc1cc(C)c2nc3c(ccc4ccccc43)c(C)c2c1` ? active

Hi team, can someone confirm the assay call for `O=C(Cl)c1ccccc1C(=O)Cl` ? active
